Where these numbers come from: paper PMC5003356

- target_entity: P54nrb-HIS (UniProt Q15233)
- Sequence: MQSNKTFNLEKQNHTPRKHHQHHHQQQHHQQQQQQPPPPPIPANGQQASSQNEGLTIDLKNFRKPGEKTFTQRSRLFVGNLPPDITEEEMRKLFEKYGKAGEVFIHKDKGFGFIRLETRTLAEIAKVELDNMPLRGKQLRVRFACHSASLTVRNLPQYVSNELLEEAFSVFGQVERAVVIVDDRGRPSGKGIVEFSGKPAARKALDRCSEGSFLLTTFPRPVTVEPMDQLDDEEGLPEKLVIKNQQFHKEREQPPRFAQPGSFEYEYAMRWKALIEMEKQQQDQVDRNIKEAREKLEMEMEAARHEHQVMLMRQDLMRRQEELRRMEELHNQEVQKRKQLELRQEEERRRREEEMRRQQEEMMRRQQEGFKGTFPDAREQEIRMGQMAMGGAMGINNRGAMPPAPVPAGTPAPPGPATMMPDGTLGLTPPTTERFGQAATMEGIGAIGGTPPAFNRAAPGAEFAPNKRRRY
- experimental_details: competition FP
- cond: 3-10-3 cEt gap-mer; BRET: 1X binding buffer (0.1 M potassium acetate, 20 mM Tris pH 7.5, 1 mM EDTA, 0.01% NP-40), room temperature, 15 min; FP in the same buffer; c-Jun in OptiMEM …
This section presents sequences with their documented Kd values.
The reply should be a number in nM, with the unit left off.

- CCAGCGGGTGGACTGT [660923]: 38.3
- CCACTGCGCAGGCCAG [660935]: 337
- AACATGTCTGCCAGGG [660956]: 33
- TGAGAAGATCTCCCGG [661103]: 33.6
- GTTAAGAAGGCTGTCC [661073]: 260
- CTTCTAGCCACTGGCT [661010]: 326
- CTGGGAACTGGTCACC [660899]: 119
- CCCTCCCTCCCGCTAG [661121]: 19.5
- GGGAGGAGGACAGCTC [660908]: 4.6
- ACCCTGCCACGATGTA [660992]: 95.1

In: Return Kd (reported value) for this sequence: TCAGTCATGGTATAAA [661115]
Out: 86.9

In: Return Kd (reported value) for this sequence: TCCACAGAGCGGACTG [660965]
Out: 310
